- Test system: HBL100 (breast)
- procedure.details: MTT cytotoxicity assay, 72 hours (Example 13)
- Type: cell-based, human
- particulars: HBL, 10 nM
Non-standard residues stand in square brackets, D forms with d. Residues, ends and D or L forms follow the SMILES beside them. Aib = CC(C)(N)C(=O)O
metric.name: Percent Cytotoxicity (%)
One number for each entry, in %.

INPUT: Would you mind telling me what Percent Cytotoxicity value was observed for CC[C@H](C)[C@H](NC(=O)[C@H](Cc1c[nH]cn1)NC(=O)CNC(=O)[C@@H](NC(=O)C(C)(C)NC(=O)[C@H](Cc1c[nH]c2ccccc12)NC(=O)[C@H](CCC(N)=O)NC(=O)[C@H](N)Cc1ccccc1)C(C)C)C(N)=O [SEQ ID: 6, D-Phe-Gln-Trp-Aib-Val-Gly-His-Ile-NH2] (H-[dF]QW[Aib]VGHI-NH2; N-terminus assumed) ?
OUTPUT: 6.0

====

- Tested on: L132 (Lung)
- procedure.details: MTT cytotoxicity assay, 48 hours (Example 14)
- Assay type: cell-based
- particulars: L132, 100 pM
Non-standard residues stand in square brackets, D forms with d. Residues, ends and D or L forms follow the SMILES beside them. *: point of attachment. Octanoyl = CCCCCCCC(=O)*; Ac5c = NC1(C(=O)O)CCCC1; Deg = CCC(N)(CC)C(=O)O; Aib = CC(C)(N)C(=O)O
So I've got a bunch of compounds here, and I need their Percentage cytotoxicity values.
Give bare numbers, in %.

INSERT INTO measurements (compound, metric_name, measured_number) VALUES
  ('CCCCCCCC(=O)N[C@H](Cc1ccccc1)C(=O)N[C@@H](CCC(N)=O)C(=O)N[C@@H](Cc1c[nH]c2ccccc12)C(=O)N[C@@H](C)C(=O)N[C@H](C(=O)NC(C)(C)C(=O)N[C@@H](Cc1c[nH]cn1)C(=O)N[C@@H](CC(C)C)C(N)=O)C(C)C [SEQ ID: 12] (Octanoyl-[dF]QWAV[Aib]HL-NH2)', 'Percentage cytotoxicity', 23.1),
  ('CCC(CC)(NC(=O)[C@H](Cc1c[nH]c2ccccc12)NC(=O)[C@H](CCC(N)=O)NC(=O)[C@H](N)Cc1ccccc1)C(=O)N[C@H](C(=O)NCC(=O)N[C@@H](Cc1c[nH]cn1)C(=O)N[C@@H](CC(C)C)C(N)=O)C(C)C [SEQ ID: 9, D-Phe-Gln-Trp-Deg-Val-Gly-His-Leu-NH2] (H-[dF]QW[Deg]VGHL-NH2; N-terminus assumed)', 'Percentage cytotoxicity', 22.4);

INPUT: Would you mind telling me what Percentage cytotoxicity value was observed for CC(C)C[C@H](NC(=O)[C@H](Cc1c[nH]cn1)NC(=O)C1(NC(=O)[C@@H](NC(=O)[C@H](C)NC(=O)[C@H](Cc2c[nH]c3ccccc23)NC(=O)[C@H](CCC(N)=O)NC(=O)[C@H](N)Cc2ccccc2)C(C)C)CCCC1)C(N)=O [SEQ ID: 10, D-Phe-Gln-Trp-Ala-Val-Ac5c-His-Leu-NH2] (H-[dF]QWAV[Ac5c]HL-NH2; N-terminus assumed) ?
OUTPUT: 29.4

====

- Tested on: PTC (colon)
- procedure.details: MTT cytotoxicity assay, 48 hours (Example 14)
- Type: cell-based, human
- particulars: 100 nM
Non-standard residues stand in square brackets, D forms with d. Residues, ends and D or L forms follow the SMILES beside them. *: point of attachment. Octanoyl = CCCCCCCC(=O)*; Ac5c = NC1(C(=O)O)CCCC1; Deg = CCC(N)(CC)C(=O)O; Aib = CC(C)(N)C(=O)O; Butyryl = CCCC(=O)*
So I've got a bunch of molecules here, and I need their Percentage cytotoxicity values.
Numbers only, in %.

Worked cases, Percentage cytotoxicity given:
INSERT INTO results (molecule, measured_number) VALUES
  ('CCCCCCCC(=O)N[C@H](Cc1ccccc1)C(=O)N[C@@H](CCC(N)=O)C(=O)N[C@@H](Cc1c[nH]c2ccccc12)C(=O)N[C@@H](C)C(=O)N[C@H](C(=O)NC(C)(C)C(=O)N[C@@H](Cc1c[nH]cn1)C(=O)N[C@@H](CC(C)C)C(N)=O)C(C)C [SEQ ID: 12] (Octanoyl-[dF]QWAV[Aib]HL-NH2)', 16.1),
  ('CCC(CC)(NC(=O)[C@H](Cc1c[nH]c2ccccc12)NC(=O)[C@H](CCC(N)=O)NC(=O)[C@H](N)Cc1ccccc1)C(=O)N[C@H](C(=O)NCC(=O)N[C@@H](Cc1c[nH]cn1)C(=O)N[C@@H](CC(C)C)C(N)=O)C(C)C [SEQ ID: 9, D-Phe-Gln-Trp-Deg-Val-Gly-His-Leu-NH2] (H-[dF]QW[Deg]VGHL-NH2; N-terminus assumed)', 19.5),
  ('CC(C)C[C@H](NC(=O)[C@H](Cc1c[nH]cn1)NC(=O)C1(NC(=O)[C@@H](NC(=O)[C@H](C)NC(=O)[C@H](Cc2c[nH]c3ccccc23)NC(=O)[C@H](CCC(N)=O)NC(=O)[C@H](N)Cc2ccccc2)C(C)C)CCCC1)C(N)=O [SEQ ID: 10, D-Phe-Gln-Trp-Ala-Val-Ac5c-His-Leu-NH2] (H-[dF]QWAV[Ac5c]HL-NH2; N-terminus assumed)', 29.3);

INPUT: Would you mind telling me what Percentage cytotoxicity value was observed for CCCC(=O)N[C@H](Cc1ccccc1)C(=O)N[C@@H](CCC(N)=O)C(=O)N[C@@H](Cc1c[nH]c2ccccc12)C(=O)N[C@@H](C)C(=O)N[C@H](C(=O)NC(C)(C)C(=O)N[C@@H](Cc1c[nH]cn1)C(=O)N[C@@H](CC(C)C)C(N)=O)C(C)C [SEQ ID: 11] (Butyryl-[dF]QWAV[Aib]HL-NH2) ?
OUTPUT: 25.8
